# assay-target: T1, 4H796-bN
# T1 chain: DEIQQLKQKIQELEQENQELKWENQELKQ
# method: two-hybrid library CCNG1;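 also: natural log of median RNA to DNA barcode read ratio; higher means stronger binding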
YES if interaction score is below -0.2. NO if not; exact matches included in NO.

Exercise: Dear reviewer, please state whether DKIQQLKQKNQELKQKIQELEWEIQELEQ [4H3041-bN] has interaction score strictly beneath -0.2.
Solution: YES

Exercise: Given the entry DKIQQLKQEIQELEQENQELKWEIQELEQ [4H2585-bN] , would its reported interaction score be below -0.2?
Solution: YES

Exercise: Is interaction score strictly under -0.2 for the entry DKIQQLKQENQELKQEIQELEWKNQELKQ [4H2760-bN] ?
Solution: NO

Exercise: A record lists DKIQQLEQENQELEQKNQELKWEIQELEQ [4H2233-bN] . Is its interaction score below -0.2?
Solution: YES

Exercise: Determine whether this binder shows interaction score lower than -0.2 (ties excluded): DKNQQLEQKIQELEQKIQELEWENQELKQ [4H3364-bN]
Solution: NO

Exercise: Item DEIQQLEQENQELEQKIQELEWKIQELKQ [4H166-bN] : interaction score beneath -0.2, strictly?
Solution: YES

Exercise: Field: below-cutoff. Rule: recorded interaction score strictly less than -0.2. Subject: DKIQQLKQKIQELKQKNQELEWENQELEQ [4H2931-bN]
Solution: YES

Exercise: Dear colleague, could you confirm whether interaction score of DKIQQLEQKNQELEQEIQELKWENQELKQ [4H2444-bN] falls below -0.2? Thanks.
Solution: NO

Exercise: Take the binder DEIQQLEQEIQELEQKNQELEWKNQELKQ [4H56-bN] and say whether its interaction score is less than -0.2.
Solution: NO

Exercise: interaction score under -0.2? Item: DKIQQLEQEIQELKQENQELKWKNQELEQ [4H2143-bN]
Solution: YES

Exercise: Could you please tell me whether interaction score recorded for DEIQQLEQKIQELKQENQELKWKIQELEQ [4H349-bN] is less than -0.2?
Solution: YES

Exercise: Determine whether this binder shows interaction score lower than -0.2 (ties excluded): DKIQQLKQKIQELEQKIQELKWENQELEQ [4H2859-bN]
Solution: YES

Exercise: Threshold test, interaction score < -0.2: DKNQQLEQENQELKQKIQELEWEIQELEQ [4H3297-bN]
Solution: YES

Exercise: Input DEIQQLKQKIQELEQENQELKWENQELKQ [4H796-bN] ; condition: interaction score strictly below -0.2. Does it hold?
Solution: NO

Exercise: In plain terms, does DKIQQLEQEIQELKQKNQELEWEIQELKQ [4H2162-bN] come in under -0.2 for interaction score?
Solution: YES

Exercise: Bench note: check whether DEIQQLEQENQELKQKIQELKWENQELEQ [4H235-bN] shows interaction score below -0.2
Solution: YES

Exercise: Consider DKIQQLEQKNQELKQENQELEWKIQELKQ [4H2518-bN] . Does its interaction score lie strictly below -0.2?
Solution: NO

Exercise: Does the reported interaction score of DEIQQLKQENQELKQENQELKWEIQELKQ [4H730-bN] stay below -0.2?
Solution: YES

Exercise: Bench note: check whether DKNQQLEQKIQELEQKNQELEWKIQELEQ [4H3381-bN] shows interaction score below -0.2
Solution: YES

Exercise: # check: interaction score < -0.2 for DEIQQLEQKIQELEQEIQELEWKNQELKQ [4H264-bN]
Solution: NO

Exercise: Please let me know if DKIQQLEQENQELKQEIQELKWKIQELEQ [4H2253-bN] shows interaction score below -0.2.
Solution: YES

Taken from paper PMC10397247.
